# measurementProtocol: Therapeutic index, ratio of CC50 for HeLa-CD4/CCR5 cells to EC50 for HIV 1 in HeLa-CD4/CCR5 cells assessed as inhibition of viral infectivity
# Type: cell-based
# measurementSetup: human, read-out: Ratio CC50/EC50
readoutName: selectivity ratio

Returns the measured selectivity ratio for the input compound. Input: `N=C1Sc2ccccc2C2=NCCCN12`
> 200

---

# measurementProtocol: Cytotoxicity against human HeLa cells expressing CD4/CCR5
# Format: cell-based
readoutName: CC50

Returns the measured CC50 for the input compound. Input: `N=C1Sc2ccccc2C2=NCCCN12`
> 100 µM

---

# Tested on: Human immunodeficiency virus 1
# measurementProtocol: Antiviral activity against HIV 1 NL4-3 in HeLa-CD4/CCR5 cells assessed as inhibition of viral infectivity after 48 hrs by MAGI assay
# Assay type: functional, organism-based
# measurementSetup: Human immunodeficiency virus 1, NL4-3, MAGI-CCR5, 48 h
Item-by-item account of EC50
State the answer as a number, implicitly in nM.

Returns the measured EC50 for the input compound. Input: `N=C1Sc2cc(-c3ccc4c(c3)OCO4)ccc2C2=NCCCN12`
230

What would you report for `N=C1Sc2ccccc2C2=NCCCN12` ?
380
